# Test system: MKN-A
# protocol summary: cells
# Parameters: species or system JFCR39 human cancer cell lines; JFCR39 panel growth inhibition, sulforhodamine B total protein after 48 h
# measurement conditions: 48 h
Exercise: state measured GI50 for each of the compounds provided.
One number for each entry, in nM.

Query: Item C=C1CC[C@@H]2[C@](C)(CC[C@H]3O[C@H](C=C(C)C)C[C@@]23C)[C@@H]1Cc1c(OC)oc(CO)c(C(=O)OC)c1=O [Compound 21] has what recorded GI50?
Reply: 14300

Query: Thanks! And C=C1CCC2C(C)(CC(=O)C=C(C)C)C(O)CCC2(C)C1Cc1c(O)c(C)c(C)oc1=O (centres unmarked) [Compound 7] ?
Reply: 20500

Query: Thanks! And C=C1CCC2C(C)(CCC=C(C)C)C(O)CCC2(C)C1Cc1c(OC)oc(C)c(C)c1=O (centres unmarked) [Compound 11] ?
Reply: 308

State recorded GI50 for all listed compounds.
1. C=C1CC[C@@H]2[C@](C)(CC[C@H]3O[C@H](C=C(C)C)C[C@@]23C)[C@@H]1Cc1c(OC)oc(CO)c(C)c1=O [Compound 20]
2. C=C1CC[C@H]2[C@]3(C)C[C@@H](C=C(C)C)O[C@H]3CC[C@]2(C)[C@@H]1Cc1c(OC)oc(CO)c(C)c1=O [Compound 17]

Reply:
98.6
408

* * *

# assay system: Aβ42 (Homo sapiens, UniProt P05067)
# Sequence (P05067 672-713): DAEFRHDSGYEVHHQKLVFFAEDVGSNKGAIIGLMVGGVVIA
# protocol summary: Th-T (thioflavin-T) assay of Aβ42 aggregation
# Type: biochemical
# measurement conditions: concentration 20, unit not given; time-course reading M130
experimental endpoint: Th-T fluorescence of Aβ42 with compound, mean of three wells (Fig. 7a source data)
Numbers only.

Record excerpt, results attached:
Query: Item "C=C1CC[C@@H]2[C@](C)(CC[C@H]3O[C@H](C=C(C)C)C[C@@]23C)[C@@H]1Cc1c(OC)oc(CO)c(C(=O)OC)c1=O" has what recorded Th-T fluorescence of Aβ42 with compound, mean of three wells (Fig. 7a source data)?
Reply: 0.9564

Query: Thanks! And C=C1CCC2C(C)(CCC=C(C)C)C(O)CCC2(C)C1Cc1c(OC)oc(CO)c(C(=O)OC)c1=O (centres unmarked) ?
Reply: 1.025

State recorded Th-T fluorescence of Aβ42 with compound, mean of three wells (Fig. 7a source data) for all listed molecules.
1. C=C1CCC2C(C)(CCC=C(C)C)C(O)CCC2(C)C1Cc1c(OC)oc(CO)c(C)c1=O (centres unmarked)
2. C=C1CC[C@@H]2[C@](C)(CC[C@H]3O[C@H](C=C(C)C)C[C@@]23C)[C@@H]1Cc1c(OC)oc(CO)c(C)c1=O
3. C=C1CCC2C(C)(CCC=C(C)C)C(O)CCC2(C)C1Cc1c(OC)oc(C)c(C(=O)OC)c1=O (centres unmarked)

Reply:
1: 2.19; 2: 3.095; 3: 1.596

* * *

# assay system: Aβ42 (Homo sapiens, UniProt P05067)
# protocol summary: Th-T (thioflavin-T) assay of Aβ42 aggregation
# Type: biochemical
# measurement conditions: reading M107; compound at 10 (head suffix _10)
experimental endpoint: Th-T fluorescence, mean of three wells (Fig. 7a)
One number for each entry.

Record excerpt, results attached:
Query: Provide the documented Th-T fluorescence, mean of three wells (Fig. 7a) with Aβ42 (Homo sapiens, UniProt P05067) as the system for C=C1CC[C@@H]2[C@](C)(CC[C@H]3O[C@H](C=C(C)C)C[C@@]23C)[C@@H]1Cc1c(OC)oc(CO)c(C(=O)OC)c1=O [Compound 21]
Reply: 1.6819

Query: Thanks! And C=C1CC[C@@H]2[C@](C)(CC[C@H]3O[C@H](C=C(C)C)C[C@@]23C)[C@@H]1Cc1c(OC)oc(CO)c(C)c1=O [Compound 20] ?
Reply: 3.243

Query: Thanks! And C=C1CCC2C(C)(CCC=C(C)C)C(O)CCC2(C)C1Cc1c(OC)oc(CO)c(C)c1=O (centres unmarked) [Compound 12] ?
Reply: 2.747

Query: Thanks! And C=C1CCC2C(C)(CCC=C(C)C)C(O)CCC2(C)C1Cc1c(OC)oc(CO)c(C(=O)OC)c1=O (centres unmarked) [Compound 13] ?
Reply: 1.546

Here is the next item to consider.
Query: Provide the documented Th-T fluorescence, mean of three wells (Fig. 7a) with Aβ42 (Homo sapiens, UniProt P05067) as the system for C=C1CCC2C(C)(CCC=C(C)C)C(O)CCC2(C)C1Cc1c(OC)oc(C)c(C(=O)OC)c1=O (centres unmarked) [Compound 14]
Reply: 2.856

* * *

# assay system: Aβ42 (Homo sapiens, UniProt P05067)
# protocol summary: Th-T (thioflavin-T) assay of Aβ42 aggregation
# Type: biochemical
# measurement conditions: Aβ42 (10 μM) ± DPPs (20 μM), room temperature
experimental endpoint: first Th-T assay result

Query: Item C=C1CCC2C(C)(CCC=C(C)C)C(O)CCC2(C)C1Cc1c(OC)oc(C)c(C(=O)OC)c1=O (centres unmarked) [Compound 14] has what recorded first Th-T assay result?
Reply: suppressed Aβ42

Query: Thanks! And C=C1CCC2C(C)(CCC=C(C)C)C(O)CCC2(C)C1Cc1c(OC)oc(CO)c(C)c1=O (centres unmarked) [Compound 12] ?
Reply: suppressed Aβ42

* * *

# assay system: Aβ42 (Homo sapiens)
# protocol summary: Th-T (thioflavin-T) assay of Aβ42 aggregation
# Assay type: biochemical
# measurement conditions: column suffix _10; reading M91
experimental endpoint: Fig. 7a Th-T reading, mean of three wells
Answers are plain numbers.

State recorded Fig. 7a Th-T reading, mean of three wells for all listed molecules.
1. C=C1CC[C@@H]2[C@](C)(CC[C@H]3O[C@H](C=C(C)C)C[C@@]23C)[C@@H]1Cc1c(OC)oc(CO)c(C)c1=O
2. C=C1CCC2C(C)(CCC=C(C)C)C(O)CCC2(C)C1Cc1c(OC)oc(CO)c(C(=O)OC)c1=O (centres unmarked)
3. C=C1CC[C@@H]2[C@](C)(CC[C@H]3O[C@H](C=C(C)C)C[C@@]23C)[C@@H]1Cc1c(OC)oc(CO)c(C(=O)OC)c1=O
4. C=C1CCC2C(C)(CCC=C(C)C)C(O)CCC2(C)C1Cc1c(OC)oc(C)c(C(=O)OC)c1=O (centres unmarked)
5. C=C1CCC2C(C)(CCC=C(C)C)C(O)CCC2(C)C1Cc1c(OC)oc(CO)c(C)c1=O (centres unmarked)

Reply:
1: 3.334; 2: 1.5515; 3: 1.5663; 4: 2.848; 5: 3.03

* * *

Exercise: state measured Th-T fluorescence, mean of three wells for each of the compounds provided.
# assay system: Aβ42 (Homo sapiens, UniProt P05067)
# protocol summary: Th-T (thioflavin-T) assay of Aβ42 aggregation
# Format: biochemical
# measurement conditions: reading M22; Supplementary Fig. 47 source data

Record excerpt, results attached:
Query: Item "C=C1CC[C@H]2[C@]3(C)C[C@H](C=C(C)C)O[C@H]3CC[C@]2(C)[C@@H]1Cc1c(O)c(C)c(C)oc1=O" has what recorded Th-T fluorescence, mean of three wells?
Reply: 2.615

Query: Thanks! And "C=C1CC[C@H]2[C@]3(C)C[C@H](C=C(C)C)O[C@H]3CC[C@]2(C)[C@@H]1Cc1c(OC)oc(C)c(C)c1=O" ?
Reply: 3.836

Query: Thanks! And C=C1CCC2C(C)(CC(=O)C=C(C)C)C(O)CCC2(C)C1Cc1c(O)c(C)c(C)oc1=O (stereo not shown) ?
Reply: 2.121

Here is the next item to consider.
Query: Item C=C1CCC2C(C)(CC(=O)C=C(C)C)C(O)CCC2(C)C1Cc1c(OC)oc(C)c(C)c1=O (stereo not shown) has what recorded Th-T fluorescence, mean of three wells?
Reply: 3.422

* * *

# assay system: Aβ42 (Homo sapiens, UniProt P05067)
# protocol summary: Th-T (thioflavin-T) assay of Aβ42 aggregation
# Format: biochemical
# measurement conditions: column suffix _10; reading M96
Decision: Fig. 7a Th-T reading, mean of three wells beneath 3 gives met; Fig. 7a Th-T reading, mean of three wells meeting or exceeding 3 gives not met.

Query: Does the reported Fig. 7a Th-T reading, mean of three wells of the following compound sit strictly below 3? C=C1CCC2C(C)(CCC=C(C)C)C(O)CCC2(C)C1Cc1c(OC)oc(C)c(C(=O)OC)c1=O (centres unmarked) [Compound 14]
Reply: met

Query: Thanks! And C=C1CC[C@@H]2[C@](C)(CC[C@H]3O[C@H](C=C(C)C)C[C@@]23C)[C@@H]1Cc1c(OC)oc(CO)c(C(=O)OC)c1=O [Compound 21] ?
Reply: met

Query: Thanks! And C=C1CC[C@@H]2[C@](C)(CC[C@H]3O[C@H](C=C(C)C)C[C@@]23C)[C@@H]1Cc1c(OC)oc(CO)c(C)c1=O [Compound 20] ?
Reply: not met

---
Query: Does the reported Fig. 7a Th-T reading, mean of three wells of the following compound sit strictly below 3? C=C1CCC2C(C)(CCC=C(C)C)C(O)CCC2(C)C1Cc1c(OC)oc(CO)c(C(=O)OC)c1=O (centres unmarked) [Compound 13]
Reply: met
